- STUDY SYSTEM: T1, dimeric hIL-4R-hFc (human, UniProt P24394 26-232)
- T1 construct: also called hIL-4R-Fc; not shown: human Fc (hFc)
- T1 sequence: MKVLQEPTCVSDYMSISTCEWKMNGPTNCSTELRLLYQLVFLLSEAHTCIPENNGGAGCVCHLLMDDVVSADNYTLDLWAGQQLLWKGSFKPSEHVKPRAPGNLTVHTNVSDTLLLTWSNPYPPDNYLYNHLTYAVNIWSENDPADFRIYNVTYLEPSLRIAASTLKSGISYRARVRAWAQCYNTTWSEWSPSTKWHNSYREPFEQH
- ASSAY INFO: SPR; reduction of hIL-4 (50 nM) binding to captured hIL-4R-hFc after antibody; competitor hIL-4
# % Inhibition (BIAcore) annotations

BINDER	% Inhibition (BIAcore), %
VAK11D4-1 (antibody, V domains shown, Apparently tested with mouse constant region (anti-mouse IgG capture/detection)) VH: QVRLVESGGGVVQPGRSLRLSCVASGFTFRSYGMHWVRQAPGRGLEWVAVISYDGSQTFYVDSVKVRFTISRDNSNNTLYLEMNSLRVDDTAVYFCVKEGRSGSWFDPWGQGTLVAVSS VL: DIHMTQSPSSLSASVGDRVTITCRASQAINNYLAWFQQKPGRTPKSLIFATSSLQSGVPSRFSGSGSGTDFTLTISSLQPEDFATYYCQQYNSHPWTFGQGTKVEIK	95
VAB 4D5-3 (antibody, V domains shown, Apparently tested with mouse constant region (anti-mouse IgG capture/detection)) VH: QVQLVQSGPEVKKPGASVKVSCKASGYTFTNYGISWVRQAPGQGLEWMGWISVYNGKTNYAQKFQGRVTMTTDTSTSTAYMDLRSLRSDDTAVYYCARGSGYDFDYWGQGTLVTVSS VL: AIQMTQSPSSLSASVGDRVTITCRASQGIRNALGWYQQKPGKAPKLLIFASSSLQSGVPSRFSGSGSGTDFTLTIRSLQPEDFAAYYCLQDYNYPYTFGQGTKLEIK	82
